- tested.target: HDAC3 (Homo sapiens (Human), UniProt O15379)
- Sequence (O15379 whole entry): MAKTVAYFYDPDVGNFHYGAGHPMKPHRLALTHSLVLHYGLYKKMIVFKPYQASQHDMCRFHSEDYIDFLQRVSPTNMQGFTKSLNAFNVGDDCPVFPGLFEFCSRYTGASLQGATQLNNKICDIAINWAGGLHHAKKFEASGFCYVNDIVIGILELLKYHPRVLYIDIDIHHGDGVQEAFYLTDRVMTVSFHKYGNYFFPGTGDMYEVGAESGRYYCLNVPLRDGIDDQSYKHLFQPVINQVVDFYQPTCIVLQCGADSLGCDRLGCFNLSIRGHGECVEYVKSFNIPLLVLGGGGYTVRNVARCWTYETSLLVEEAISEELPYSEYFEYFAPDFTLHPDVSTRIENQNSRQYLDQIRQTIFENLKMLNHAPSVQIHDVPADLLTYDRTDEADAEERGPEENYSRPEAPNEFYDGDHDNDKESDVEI
- Sequence (Q9Y618 395-489 partner): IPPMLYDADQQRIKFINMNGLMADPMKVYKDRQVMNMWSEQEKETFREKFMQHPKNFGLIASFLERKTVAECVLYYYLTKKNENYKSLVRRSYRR
- assay.info: HDAC enzyme assay, HDAC3
endpoint: IC50
Lab note: write values as number then unit, every time.

// Input: COc1ccc(C2(Nc3ncc(C(=O)NO)cn3)CC2)cc1 [Compound 97] . Output its IC50 only.
37 nM

---

- tested.target: HDAC1 (Homo sapiens (Human))
- Sequence (Q13547 whole entry): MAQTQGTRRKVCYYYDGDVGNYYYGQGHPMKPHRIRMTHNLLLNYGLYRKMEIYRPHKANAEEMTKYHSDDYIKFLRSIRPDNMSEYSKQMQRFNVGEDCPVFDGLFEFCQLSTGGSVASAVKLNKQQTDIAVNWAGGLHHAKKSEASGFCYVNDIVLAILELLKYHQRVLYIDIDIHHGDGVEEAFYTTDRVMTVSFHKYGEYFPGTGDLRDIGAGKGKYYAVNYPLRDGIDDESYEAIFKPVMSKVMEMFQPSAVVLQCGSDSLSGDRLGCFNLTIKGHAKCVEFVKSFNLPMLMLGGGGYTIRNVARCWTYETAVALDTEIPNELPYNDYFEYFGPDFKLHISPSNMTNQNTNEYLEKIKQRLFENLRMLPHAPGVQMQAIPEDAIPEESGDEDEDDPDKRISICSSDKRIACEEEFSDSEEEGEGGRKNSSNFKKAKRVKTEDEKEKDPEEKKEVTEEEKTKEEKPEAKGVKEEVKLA
- assay.info: HDAC enzyme assay, HDAC1
- assay.context: read-out: HDAC1 IC50
Consider the following compounds and their measured IC50 readings.
Record the value in µM, omitting the unit from your answer.

Observe how each entry below is paired with its result.
O=C(NO)c1cnc(NC2(c3ccc(F)cc3F)CC2)nc1 0.013
O=C(NO)c1cnc(NC2(c3ccc(F)cc3)CCOCC2)nc1 0.32
O=C(NO)c1cnc(NCCc2ccc(Cl)cc2)nc1 0.173
O=C(NO)c1cnc(NC2(c3cccc(Cl)c3)CC2)nc1 0.022

We now examine a further compound.
// Input: Cc1cccc(C2(Nc3ncc(C(=O)NO)cn3)CC2)c1 . Output its IC50 only.
0.047
